# credit: patent US20230218735A1

biological target: T1, genetically modified and chemically inactivated C. difficile toxoid A (Clostridium difficile, UniProt P16154 2-2710); test: ITC
T1 construct: also called TxdA; the toxoid
pKd overview
# pKd: negative log10 of molar concentration; output just the value

Request the reported pKd associated with hCDIFA-11 (antibody, V domains shown) VH: QVQLVQSATEMKKPGASVKVSCKASGYTFSDSYMHWVRQAPGQGLEWMGWINPDSGGTNYAQKFKGWVTMTRDTSINTVYMELRRLRSDDTAVYYCARDGGDYARHSLDYWGQGTLVTVSS VL: DVVMTQSPGTLSLSPGERVTLSCRASQSVNSDYLVWYQQKPGQAPRLLIYGASSRATGIPDRFSGSGSGPDFTLTISRLEPEDVAVYYCQLYGGLFTFGQGTRLEIKR
8.40

Also, hCDIFA-7 (antibody, V domains shown) VH: QVQLRESGPGLVKPSETLSLTCTVSGGSVSNYYWSWIRQPPGKGLEWIGYIYSSGTINFNPSLKGRVTISGDTSKNQFSLKLSSVTAADTAVYYCARSGKWALGAFDIWGQGTMVTVSS VL: QSALTQPPSVSGAPGQRVTISCTGSSSNIGTGYDVHWYQQLPGKVPKLLIHGNGDRPSGVPDRFSASKSGTSASLAITGLQSEDEGDYYCQSYDNSLSGLVVFGGGTKLTVLG please.
6.93
